Biological target: T1, GIP receptor (human (printed as hGIPR), UniProt P48546 22-466)
T1 sequence (looked up): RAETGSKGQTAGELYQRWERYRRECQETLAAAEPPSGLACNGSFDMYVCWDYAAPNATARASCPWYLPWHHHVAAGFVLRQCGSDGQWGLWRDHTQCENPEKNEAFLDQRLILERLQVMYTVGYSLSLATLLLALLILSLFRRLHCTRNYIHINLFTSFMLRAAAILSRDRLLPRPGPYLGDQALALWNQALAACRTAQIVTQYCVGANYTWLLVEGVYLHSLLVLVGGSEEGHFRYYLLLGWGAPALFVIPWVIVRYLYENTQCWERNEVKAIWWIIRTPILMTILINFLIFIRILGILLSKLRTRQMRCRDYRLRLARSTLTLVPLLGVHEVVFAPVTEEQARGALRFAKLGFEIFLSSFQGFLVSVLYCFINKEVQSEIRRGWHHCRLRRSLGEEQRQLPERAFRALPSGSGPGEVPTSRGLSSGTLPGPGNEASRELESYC
Experiment: cell-based or functional assay
Non-standard residues stand in square brackets, D forms with d. No end group written: not given here. Aib = CC(C)(N)C(=O)O
Parameter: EC50 hGIPR 100% hP (CreLuc). Scope: all listed entries.
Give the value in nM but do not write nM after it.

// below: answered binders
Binder	EC50 hGIPR 100% hP (CreLuc) / nM
YXEGTFTSDYSIXLEKQAQXAFVEWLIKGGPSSGASLRHYYNWLTRXRY (Aib at 2, 13, 20; bHGln (beta-homo-L-glutamine) at 47; K28 side chain carries C20DA-gGlu-gGlu-gGlu-gGlu-gGlu-gGlu-eLys; C-terminal amide) [Compound 208]	0.81
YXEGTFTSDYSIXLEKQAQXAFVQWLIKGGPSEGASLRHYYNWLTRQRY (Aib at 2, 13, 20; K28 side chain carries C18DA-gGlu-gGlu-gGlu-gGlu-gGlu; C-terminal amide) [Compound 250]	1.25

Quick one: EC50 hGIPR 100% hP (CreLuc) for Y[Aib]EGTFTSDYSI[Aib]LEKQAE[Aib]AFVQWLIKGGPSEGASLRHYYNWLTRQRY-NH2 (not fully specified (residue 28); also: TFA salt) [Compound 174] ? 1.26
